Provide the recorded pIC50 for the entries that follow.
measurement_target: GSK3a (GST-full length GSK3a) (Homo sapiens, UniProt P49840)
Construct: GST-full length GSK3a [SignalChem G08-10G]; purchased SignalChem G08-10G
Sequence (P49840 whole entry): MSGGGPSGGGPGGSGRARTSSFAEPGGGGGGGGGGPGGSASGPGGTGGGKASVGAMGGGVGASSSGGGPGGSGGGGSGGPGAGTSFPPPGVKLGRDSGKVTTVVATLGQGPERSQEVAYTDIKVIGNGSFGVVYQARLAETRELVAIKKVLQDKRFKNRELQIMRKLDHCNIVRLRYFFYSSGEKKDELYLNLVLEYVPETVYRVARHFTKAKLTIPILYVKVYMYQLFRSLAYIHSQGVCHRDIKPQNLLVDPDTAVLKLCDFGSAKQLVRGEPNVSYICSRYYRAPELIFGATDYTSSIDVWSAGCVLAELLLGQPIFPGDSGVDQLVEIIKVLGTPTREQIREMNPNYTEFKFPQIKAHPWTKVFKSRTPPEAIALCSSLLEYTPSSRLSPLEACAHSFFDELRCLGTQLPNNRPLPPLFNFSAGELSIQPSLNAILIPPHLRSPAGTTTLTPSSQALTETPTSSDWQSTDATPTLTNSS
experiment: GSK3a TR-FRET kinase inhibition assay
Type: biochemical
test_settings: 4 μM ATP; read-out: GSK3α TR-FRET 4 μM ATP GMean IC50
pIC50: −log10 of the molar value.

Answered cases to consult:
# molecule, pIC50
rows = [
    ("CCC1(c2cccc(-c3cc(C)nn3C)c2)C2=C(CC(C)(C)CC2=O)Nc2ncc(F)cc21 (single isomer, unassigned) [Compound 1033A]", "5.30 to 6.00"),
    ("CCC1(c2ccccc2)C2=C(CC(C)(C)NC2=O)Nc2ncccc21 (single isomer, unassigned) [Compound 1002B]", "5.30 to 6.00"),
    ("CCC1(c2cccc(-c3ccnn3C)c2)C2=C(CC(C)(C)CC2=O)Nc2ncccc21 (single isomer, unassigned) [Compound 1019A]", "≥ 7.00"),
    ("CCC1(c2cccc(-c3c(F)cncc3OC)c2)C2=C(CC(C)(C)CC2=O)Nc2ncccc21 (single isomer, unassigned) [Compound 154B]", "≥ 7.00"),
    ("CCC1(c2ccccc2)C2=C(CC3(CCC3)CC2=O)Nc2ncc(F)cc21 (single isomer, unassigned) [Compound 1008B]", "5.30 to 6.00"),
]

Quick request: pIC50 for each listed item, please.
1. CCC1(c2cccc(-c3cncn3C(C)C)c2)C2=C(CC(C)(C)CC2=O)Nc2ncccc21 (single isomer, unassigned) [Compound 149A]
2. CCC1(c2cccc(-c3cccnc3)c2)C2=C(CC(C)(C)CC2=O)Nc2ncccc21 (single isomer, unassigned) [Compound 1015B]
3. CCC1(c2cccc(-c3cnnc(C)c3)c2)C2=C(CC(C)(C)CC2=O)Nc2ncccc21 (single isomer, unassigned) [Compound 1022A]
4. CCC1(c2cccc(-c3ccncc3C)c2)C2=C(CC(C)(C)CC2=O)Nc2ncc(F)cc21 (single isomer, unassigned) [Compound 1031A]
5. CCC1(c2ccccc2)C2=C(CC(C)(C)CC2=O)Nc2ncc(C(F)(F)F)cc21 (single isomer, unassigned) [133 A]

Ans:
1. ≥ 7.00
2. 5.30 to 6.00
3. 6.00 to 7.00
4. 6.00 to 7.00
5. < 5.30

###

measurement_target: GSK3b (GST-full length GSK3b) (Homo sapiens)
Construct: GST-full length GSK3b: [SignalChem G08-9G]; purchased SignalChem G08-9G
Sequence (P49841 whole entry): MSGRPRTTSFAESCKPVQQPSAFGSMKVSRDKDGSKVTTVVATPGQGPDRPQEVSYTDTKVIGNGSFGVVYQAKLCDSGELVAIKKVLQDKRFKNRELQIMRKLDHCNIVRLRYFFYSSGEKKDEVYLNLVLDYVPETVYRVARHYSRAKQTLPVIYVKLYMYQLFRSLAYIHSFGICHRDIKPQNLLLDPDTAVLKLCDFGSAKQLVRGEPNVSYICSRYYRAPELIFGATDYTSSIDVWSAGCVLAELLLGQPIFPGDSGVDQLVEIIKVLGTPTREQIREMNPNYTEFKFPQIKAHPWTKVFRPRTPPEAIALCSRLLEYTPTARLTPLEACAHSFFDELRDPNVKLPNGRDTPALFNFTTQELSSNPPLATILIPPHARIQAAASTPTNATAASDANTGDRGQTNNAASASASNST
experiment: GSK3b TR-FRET kinase inhibition assay
Format: biochemical
test_settings: 1 mM ATP; Table 3; read-out: GSK3b TR-FRET 1 mM ATP Average IC50
attribute_measured: IC50

Answered examples (2):
# molecule, IC50
rows = [
    ("COc1cncc(F)c1-c1cccc(C2(C)C3=C(CC(C)(C)CC3=O)Nc3ncc(C4CC4)cc32)c1 (single isomer, unassigned) [Compound 167B]", "1000 to 5000 nM"),
    ("COc1cncc(F)c1-c1cccc(C2(C)C3=C(CC(C)(C)CC3=O)Nc3ncc(C(F)(F)F)cc32)c1 (single isomer, unassigned) [Compound 174B]", "100 to 1000 nM"),
]

Q: Provide measured IC50 value, entry: CC1(C)CC(=O)C2=C(C1)Nc1ncc(F)c(C#N)c1C2(C)c1cccc(S(C)(=O)=O)c1 (single isomer, unassigned) [Compound 148B]
Ans: 5000 to 20000 nM
